# measurement-target: chicken gizzard smooth muscle myosin subfragment-1 chemically crosslinked to cardiac or skeletal actin (Gallus gallus, UniProt P10587)
pIC50: −log10 of the molar value.
value-type: pIC50

Study these solved cases before continuing.
Cn1cc(-c2ccc(C(=O)NCC3CCN(CCCNC(=O)OC(C)(C)C)C3=O)c(NCCc3cccc(F)c3)n2)cn1 (stereo not drawn)
6.16
N#Cc1ccccc1-c1ccc(C(=O)NCCN)c(NCCc2cccc(F)c2)n1
5.58
N#Cc1ccccc1-c1ccc(C(=O)NC[C@H]2CCCC(=O)N2CCCN)c(NCCc2cccc(F)c2)n1
7.59
CC(C)(N)CNC(=O)c1ccc(-c2ccccc2C#N)nc1NCCc1cccc(F)c1
6.18
CN1CCN[C@@H](CNC(=O)c2ccc(-c3ccccc3C#N)nc2NCCc2cccc(F)c2)C1
5.53

1 = N#Cc1ccccc1-c1ccc(C(=O)NCCNC(=O)CCN)c(NCCc2cccc(F)c2)n1
2 = Cn1cc(-c2nc(NCCc3cccc(F)c3)c(C(=O)NC[C@H]3CCCN3C(=O)CCCN)cc2C#N)cn1
3 = COc1ccc(C#N)c(-c2ccc(C(=O)NCc3cccnc3)c(NCCc3cccc(F)c3)n2)c1
4 = C[C@H](CNC(=O)c1cc(F)c(-c2cnn(C)c2)nc1NCCc1cccc(F)c1)C(C)(C)O
Ask | Arrange items by their pIC50 values in increasing order. Quick reminder: the answer is the labels in the order asked.
Reply | 1, 4, 2, 3

---

# measurement-target: chicken gizzard smooth muscle myosin subfragment-1 chemically crosslinked to cardiac or skeletal actin (Gallus gallus, UniProt P10587)
value-type: IC50 (µM)

// known answers, use as guide
O=C(NCc1cc[nH]n1)c1cc(F)c(-c2cn[nH]c2)nc1NCCc1cccc(F)c1
0.024
O=C1CNCC(CNC(=O)c2ccc(-c3ccn[nH]3)nc2NCCc2cccc(F)c2)N1 (stereo not drawn)
6.95
O=C(NCc1cccnc1)c1ccc(-c2ccccc2)nc1NCCc1cccc(C(F)(F)F)c1
8.25
Cn1cc(-c2nc(NCCc3cccc(F)c3)c(C(=O)NC[C@H]3CCC(=O)N3CCCNC(=O)OC(C)(C)C)cc2F)cn1
0.322
N#Cc1ccccc1-c1nc(NCCc2cccc(F)c2)c(C(=O)NCc2cccnc2)cc1C#N
0.318

1 = COc1cccc(CCNc2nc(-c3ccccc3)ccc2C(=O)NCc2cccnc2)c1
2 = Cc1cc(C(=O)NCc2cccnc2CNC(=O)OC(C)(C)C)c(NCCc2cccc(F)c2)nc1-c1cnn(C)c1
3 = CC(=O)NCC1CCCCN1C(=O)c1ccc(-c2ccccc2)nc1NCCc1ccccn1 (stereo not drawn)
4 = N#Cc1ccccc1-c1ccc(C(=O)NCC2CCCN2CCCN)c(NCCc2cccc(F)c2)n1 (stereo not drawn)
Ask | Please put the entries in order of rising IC50. Field: ranking. Enter the labels in the order requested.
Reply | 1, 2, 4, 3
(1: 0.269 µM, 2: 1.12 µM, 4: 3.5 µM, 3: 21.2 µM)

---

# measurement-target: chicken gizzard smooth muscle myosin subfragment-1 chemically crosslinked to cardiac or skeletal actin (Gallus gallus, UniProt P10587)
value-type: IC50 (nM)

Here's what some known entries look like.
CC(=O)N1CCC(CNC(=O)c2ccc(-c3ccccc3)nc2NCCc2ccccn2)CC1
96700
Cn1cc(-c2nc(NCCc3cccc(F)c3)c(C(=O)NC[C@H]3CCC(=O)N3CCCN)cc2F)cn1
79
C[C@H](CNC(=O)c1cc(F)c(-c2cnn(C)c2)nc1NCCc1cccc(F)c1)NC(=O)CN(C)C
121
N#Cc1ccccc1-c1ccc(C(=O)NC[C@H]2CCCN(C(=O)CCCN)C2)c(NCCc2cccc(F)c2)n1
512
CN1CCN(C(=O)CCCN)C[C@@H]1CNC(=O)c1ccc(-c2ccccc2C#N)nc1NCCc1cccc(F)c1
6720

1 = N#Cc1ccccc1-c1ccc(C(=O)NC[C@H]2CCC(=O)N2CCCCN)c(NCCc2cccc(F)c2)n1
2 = C[C@H](N)C(=O)N1CCCC1CNC(=O)c1cc(F)c(-c2cc[nH]n2)nc1NCCc1cccc(F)c1 (stereo partly drawn)
Ask | Could you tell me which of 1 and 2 has the lower IC50 reading? Please identify the chosen entry by its label.
Reply | 1
(1: 51.7 nM, 2: 314 nM)

P = Cn1cc(-c2nc(NCCc3cccc(F)c3)c(C(=O)NC[C@H]3CCN3C(=O)CCCN)cc2F)cn1
Q = N#Cc1ccccc1-c1ccc(C(=O)NCC(N)=O)c(NCCc2cccc(F)c2)n1
Ask | Record comparison, field IC50: mark the lower of P and Q . Which one? Tell me its label.
Reply | P

Attribution: patent US7932270B2
